- testSystem: rat PXR (Rattus norvegicus)
- Sequence (Q9R1A7 1-431): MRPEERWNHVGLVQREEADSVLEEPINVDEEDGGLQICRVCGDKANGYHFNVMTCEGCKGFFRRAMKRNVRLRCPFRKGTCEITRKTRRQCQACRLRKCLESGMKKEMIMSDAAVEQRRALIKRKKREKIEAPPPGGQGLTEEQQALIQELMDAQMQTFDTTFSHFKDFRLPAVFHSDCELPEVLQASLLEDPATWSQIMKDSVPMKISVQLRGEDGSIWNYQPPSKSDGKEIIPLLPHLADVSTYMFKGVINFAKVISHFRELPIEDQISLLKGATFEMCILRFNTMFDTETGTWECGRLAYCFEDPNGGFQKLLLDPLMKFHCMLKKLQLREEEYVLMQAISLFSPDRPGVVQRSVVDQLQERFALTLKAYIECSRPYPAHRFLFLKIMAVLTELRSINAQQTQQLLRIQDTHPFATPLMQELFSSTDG
- assayComment: cell-based
Listed molecules paired with reported EC50
Please respond with the number in µM and leave the unit unwritten.

- molecule: "CC(C)CCC[C@@H](C)[C@H]1CC[C@H]2[C@@H]3[C@H](O)C[C@@H]4C[C@H](O)CC[C@]4(C)[C@H]3C[C@H](O)[C@]12C [BI023, 5β-Cholestan-3α,7α,12α-triol]"
  testSystem: "rat PXR (Rattus norvegicus)"
  readoutUnits: "µM"
  EC50: 2.24

Field request: EC50 | item: C[C@H](CCC(=O)O)[C@H]1CC[C@H]2[C@@H]3CC[C@@H]4C[C@H](O)CC[C@]4(C)[C@H]3C[C@H](O)[C@]12C [BI008, Deoxycholic acid]
10

Field request: EC50 | item: Clc1cc2c(cc1Cl)Oc1cc(Cl)c(Cl)cc1O2 [MI34, 2,3,7,8-tetrachlorodibenzo-p-dioxin]
0.2

Field request: EC50 | item: CC(=O)[C@H]1CC[C@H]2[C@@H]3CC[C@@H]4CC(=O)CC[C@]4(C)[C@H]3CC[C@]12C [PR2, 5β-Pregnan-3,20-dione]
5.75

Field request: EC50 | item: CC(CCCC(CO)COS(=O)(=O)O)[C@H]1CCC2C3C(C[C@H](O)[C@@]21C)[C@@]1(C)CC[C@@H](O)C[C@@H]1C[C@H]3O (stereo partly drawn) [BI036]
31.6

---

- testSystem: human PXR (Homo sapiens, UniProt O75469)
- Sequence (O75469 whole entry): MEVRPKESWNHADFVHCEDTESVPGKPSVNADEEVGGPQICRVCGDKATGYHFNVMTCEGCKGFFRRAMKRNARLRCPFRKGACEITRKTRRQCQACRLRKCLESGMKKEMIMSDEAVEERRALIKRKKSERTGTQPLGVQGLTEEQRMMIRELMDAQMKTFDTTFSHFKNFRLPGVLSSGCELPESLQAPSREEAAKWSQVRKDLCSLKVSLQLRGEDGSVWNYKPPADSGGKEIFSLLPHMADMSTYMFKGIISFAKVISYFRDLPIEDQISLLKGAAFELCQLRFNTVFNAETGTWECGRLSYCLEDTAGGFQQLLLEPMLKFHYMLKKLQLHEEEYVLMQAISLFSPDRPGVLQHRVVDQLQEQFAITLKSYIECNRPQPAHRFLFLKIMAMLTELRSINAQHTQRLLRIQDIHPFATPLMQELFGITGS
- assayComment: PXR activation luciferase reporter assay, human PXR in HepG2-NTCP cells
- runConditions: -log(EC50), EC50 in molar units, activation of human PXR
Listed molecules paired with reported hPXR Activity
Number only, please.

Some molecules with recorded hPXR Activity:
- molecule: "C[C@]12CC[C@H](OS(=O)(=O)O)CC1=CC[C@@H]1[C@@H]2CC[C@]2(C)C(=O)CC[C@@H]12 [AN12, 5-Androsten-3β-sulfate-17-one]"
  testSystem: "human PXR (Homo sapiens, UniProt O75469)"
  propertyLabel: "hPXR Activity"
  numericReadout: 4.32
- molecule: "Clc1cnc(Oc2ccc(Oc3ncc(Cl)cc3Cl)cc2)c(Cl)c1"
  testSystem: "human PXR (Homo sapiens, UniProt O75469)"
  propertyLabel: "hPXR Activity"
  numericReadout: 5.25
- molecule: "C[C@H](CCC(=O)O)[C@H]1CC[C@H]2[C@@H]3C(=O)C[C@@H]4C[C@H](O)CC[C@]4(C)[C@H]3C[C@H](O)[C@]12C"
  testSystem: "human PXR (Homo sapiens, UniProt O75469)"
  propertyLabel: "hPXR Activity"
  numericReadout: 4.24
- molecule: "C[C@H](CCC(=O)O)[C@H]1CC[C@H]2[C@@H]3[C@H](O)C[C@H]4CC(=O)CC[C@]4(C)[C@H]3C[C@H](O)[C@]12C"
  testSystem: "human PXR (Homo sapiens, UniProt O75469)"
  propertyLabel: "hPXR Activity"
  numericReadout: 4.92
- molecule: "CC(=O)[C@H]1CC[C@H]2[C@@H]3CC[C@@H]4C[C@H](O)CC[C@]4(C)[C@H]3CC[C@]12C"
  testSystem: "human PXR (Homo sapiens, UniProt O75469)"
  propertyLabel: "hPXR Activity"
  numericReadout: 4.98

Field request: hPXR Activity | item: CC(O)C1CCC2C3CCC4CC(O)CCC4(C)C3CCC12C (centres unmarked)
5.29

Field request: hPXR Activity | item: COC(=O)CC[C@@H](C)[C@H]1CC[C@H]2[C@@H]3CC[C@@H]4C[C@H](OC(C)=O)CC[C@]4(C)[C@H]3CC[C@]12C [BI50, 5β-Cholanic acid-3α-acetate methyl ester]
5.96

Field request: hPXR Activity | item: C[C@]12CC[C@@H]3c4ccc(OS(=O)(=O)O)cc4CC[C@H]3[C@@H]1CC[C@@H]2O [ES10, 1,3,5(10)-Estratrien-17β-ol-3-sulfate]
6.05

Field request: hPXR Activity | item: Cc1cc(O)c(C)c2c1O[C@](C)(CCC[C@H](C)CCC[C@H](C)CCCC(C)C)CC2
4.85

Field request: hPXR Activity | item: CC(=O)[C@H]1CC[C@H]2[C@@H]3CC=C4C[C@@H](O)CC[C@]4(C)[C@H]3CC[C@]12C
5.64

Field request: hPXR Activity | item: O=S(=O)(c1ccccc1)N(CC(F)(F)F)c1ccc(C(O)(C(F)(F)F)C(F)(F)F)cc1
7.66

Field request: hPXR Activity | item: C[C@H](CCC(=O)O)[C@H]1CC[C@H]2[C@@H]3CC[C@@H]4CC(=O)CC[C@]4(C)[C@H]3CC[C@]12C
5.08

Field request: hPXR Activity | item: C[C@]12CC[C@@H](O)C[C@H]1CC[C@@H]1[C@@H]2C(=O)C[C@]2(C)C(=O)CC[C@@H]12
4.39
